Where do the numbers come from? From paper PMC12064818.

target: FLuc-C-HiBiT (firefly luciferase) (Photinus pyralis, UniProt P08659, form not given/L550V); experiment: SDR assay, FLuc-C-HiBiT; conditions: 10 nM FLuc-C-HiBiT; normalized activity; Log [Compound], M -8.30
Sequence (P08659 2-550 L550V, form open): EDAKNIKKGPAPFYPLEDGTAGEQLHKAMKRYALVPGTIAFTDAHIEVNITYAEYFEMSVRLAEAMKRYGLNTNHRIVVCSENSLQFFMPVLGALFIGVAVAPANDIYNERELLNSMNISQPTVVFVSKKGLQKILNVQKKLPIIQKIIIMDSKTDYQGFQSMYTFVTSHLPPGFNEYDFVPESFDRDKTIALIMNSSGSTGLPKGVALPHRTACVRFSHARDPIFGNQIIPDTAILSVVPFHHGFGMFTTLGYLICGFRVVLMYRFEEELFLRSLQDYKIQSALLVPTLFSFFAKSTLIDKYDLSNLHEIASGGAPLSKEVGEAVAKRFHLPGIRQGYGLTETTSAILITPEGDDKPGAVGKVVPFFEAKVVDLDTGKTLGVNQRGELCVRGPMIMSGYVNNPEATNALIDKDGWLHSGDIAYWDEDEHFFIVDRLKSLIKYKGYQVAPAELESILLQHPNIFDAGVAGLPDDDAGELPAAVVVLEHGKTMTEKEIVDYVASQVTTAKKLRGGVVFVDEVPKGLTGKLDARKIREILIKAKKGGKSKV
Endpoint: SDR + 10 mM ATP

>>> print(df.to_string())
                                   molecule  obs_value
0  Fc1ccc(-c2cn3cc(Cc4ccccc4)sc3n2)cc1 [compound 00102110]       10.6
1  CC1CCCN(c2ncnc3c2cnn3-c2ccccc2)C1 (centres unmarked) [compound 00081381]        8.9
2  CC(CNC(=O)C1CCN(C(=O)c2ncn3c2COC(c2ccccc2)C3)CC1)c1ccccc1 (centres unmarked) [compound 00449795]        8.1
3  Cc1ccc(-n2ncc3c(N4CCCCCC4)ncnc32)cc1 [compound 00139018]        9.6
4  O=C(O)c1cccc2c1CCN2C(=O)Nc1ccc(F)cc1 [compound 00432687]       66.2
5  CNC(=O)c1cccc2c1CCN2C(=O)Nc1ccc(C)cc1 [compound 00430160]        9.3
6  COc1ccc(-c2nc(-c3ccc(C(=O)O)cc3)no2)cc1 [compound 00168104]       14.2
7  O=C(O)CCSc1nnc(-c2ccc(Cl)cc2Cl)o1 [compound 00103142]        5.5
